test system: OVCAR-5; assay: NCI tumour cell line growth inhibition, 48 h
Structures can show the parent of a compound that is named as a salt. The source made the active and inactive calls. Cut-off read from the data, not from the text of the source: active = GI50 up to about 1.1 µM and inactive = higher.
observation-type: GI50

The examples below pair each entry with its known result.
1. COc1cc2c[n+](C)c3c4cc(OC)c(OC(C)C)cc4ccc3c2cc1OC : 69.7 µM (inactive)
2. O=C1C(=Cc2c(O)cc(O)cc2O)C(=O)c2ccccc21 : > 43 µM (inactive)
3. COC(=O)C1=COC(C)C2C[n+]3ccc4c([nH]c5ccccc54)c3CC12 (stereo unspecified) : > 100 µM (inactive)
4. Cc1ccccc1C(C#N)C(=O)C(=O)Nc1cccc(Cl)c1 (stereo unspecified) : > 100 µM (inactive)
5. CC1(Cl)C(=O)NC(=O)N(C2CC(N=[N+]=[N-])C(CO)O2)C1N=[N+]=[N-] (stereo unspecified) : > 100 µM (inactive)

// input: 5 compounds below; output: GI50 for each
1. O=C1/C(=C\c2ccc(Cl)cc2Cl)Sc2scc(-c3cccc([N+](=O)[O-])c3)[n+]21
2. NCCCCNCCCN [SPERMIDINE TRIHYDROCHLORIDE]
3. CCc1c(OC(C)=O)c2c(NC3OCC(OC(C)=O)C(OC(C)=O)C3OC(C)=O)nc(SC)nc2oc1=O (stereo unspecified)
4. O=C(Oc1cccc2cccnc12)c1cc2cc(CCl)ccc2oc1=O
5. COC(=O)C(CC(=O)c1c[nH]c2ccccc12)c1c[nH]c2ccccc12 (stereo unspecified)

Out:
1: 15.5 µM (inactive); 2: > 100 µM (inactive); 3: > 100 µM (inactive); 4: 31.5 µM (inactive); 5: 22.2 µM (inactive)

// input: 5 compounds below; output: GI50 for each
1. [O-][n+]1nc(N2CCOCC2)nc2ccccc21
2. [O-][N+]1=NC(c2ccccc2)=C1c1ccccc1
3. Cc1nc(Cl)c(CBr)c(Cl)n1
4. O/N=C1/CCCc2nonc21
5. COc1cccc2cc(C(C)=O)c(=O)oc12

Out:
> 100 µM (inactive)
> 50 µM (inactive)
2.05 µM (inactive)
> 100 µM (inactive)
> 100 µM (inactive)

// input: 3 compounds below; output: GI50 for each
1. [O-][S+](Cc1ccccc1)c1ccccc1Cn1cccc1 (stereo unspecified)
2. O=C1C=C/C(=N/c2ccccc2)c2ccccc21
3. O=C1C=CC(=O)c2ccc(=O)ccc21

Out:
1: > 100 µM (inactive); 2: 17.9 µM (inactive); 3: 19.9 µM (inactive)

###

test system: NCI-H23; assay: NCI tumour cell line growth inhibition, 48 h
Activity calls are given as the source filed them. Cut-off read from the data, not from the text of the source: active = GI50 up to about 1.1 µM and inactive = higher.
Return exactly one item of label 1 (active), label 0 (inactive)

1. COc1ccccc1NC(=O)C1=C(C)NC(C)=C(C(=O)Nc2ccccc2OC)C1C1=CC=COC1 : label 0

Turning to the following compound.
In: Recorded call for CCC/C(Cl)=N\OC(=O)Nc1cccc(C(F)(F)F)c1 ?
Out: label 0

###

What GI50 was measured for each of the following?
tested on: MDA-MB-435; test: NCI tumour cell line growth inhibition, 48 h
Activity calls are given as the source filed them. Rule as the data show it: active = GI50 up to about 1.1 µM and inactive = higher.

The examples below pair each entry with its known result.
1. Clc1ccc2c(SCC3CO3)c3ccccc3nc2c1 (centres undefined) : 3.15 µM (inactive)
2. N#CC(=C1CCN(CCCC(=O)c2ccc(F)cc2)CC1)c1ccccc1 : > 100 µM (inactive)
3. CCCCCCCCCCCCOCC(COP(=O)(O)OCCN=[N+]=[N-])OC(=O)CCCCCCCCCCC (centres undefined) : > 100 µM (inactive)

Pending compound:
In: Any idea what GI50 was measured for Nc1nc2c(c(=O)[nH]1)C(c1ccccc1)CC(=O)N2 (centres undefined) ?
Out: > 100 µM (inactive)
